EXPERIMENTAL PROTOCOL: Chromaticity (platinum-cobalt colorimetry)
Assay type: physicochemical
RECORDED CONDITIONS: aconitate/citrate products, Table 4; colour comparison at 25°C
Experimental: 3. Chromaticity: preparation of 500# platinum-cobalt colorimetric standard stock solution: 1.2450 g of potassium chloroplatinate and 1.0000 g of cobalt chloride were weighed, with an accuracy of 0.0002 g, the mixture was dissolved in 100 mL of hydrochloric acid, and then diluted to 1000 mL with distilled water. This solution is just the 500# colorimetric standard comparison solution. […]
Counter-ions that a name gives are not always drawn.
Below, each entry is listed with its recorded Chromaticity.

COMPOUND | Chromaticity
CCCCOC(=O)CC(O)(CC(=O)OCCCC)C(=O)OCCCC [Comparative Example 5, tributyl citrate, reference compound] | 50 Pt-Co
CCCCOC(=O)C=C(CC(=O)OCCCC)C(=O)OCCCC [Comparative Example 3, tributyl aconitate, reference compound] | 150 Pt-Co
CCCCOC(=O)C=C(CC(=O)OCCCC)C(=O)OCCCC [Example 32, tributyl aconitate] | 60 Pt-Co
CCCCOC(=O)C=C(CC(=O)OCCCC)C(=O)OCCCC [Example 27, tributyl aconitate] | 200 Pt-Co
CCCCOC(=O)C=C(CC(=O)OCCCC)C(=O)OCCCC [Example 23, tributyl aconitate] | 60 Pt-Co
CCCCOC(=O)CC(O)(CC(=O)OCCCC)C(=O)OCCCC [Comparative Example 4, tributyl citrate, reference compound] | 150 Pt-Co

----------
EXPERIMENTAL PROTOCOL: Tensile properties (GB/T 1040-2006): tensile modulus at 100%, elongation at break, elastic modulus
Assay type: physicochemical
RECORDED CONDITIONS: PVC plastic with 35 parts plasticizer; 50 mm/min, 25°C
Where a name gives a salt, the structure may show the parent alone.
Below, each entry is listed with its recorded Elongation at break.
MEASURE: Elongation at break (%)

MOLECULE | READOUT UNIT | MEASURED
CCCCOC(=O)C=C(CC(=O)OCCCC)C(=O)OCCCC [Example 32, tributyl aconitate] | % | 241.2
CCCCOC(=O)CC(O)(CC(=O)OCCCC)C(=O)OCCCC [Comparative Example 4, tributyl citrate, reference compound] | % | 201.3
CCCCOC(=O)C=C(CC(=O)OCCCC)C(=O)OCCCC [Example 33, tributyl aconitate] | % | 223.7
CCCCOC(=O)C=C(CC(=O)OCCCC)C(=O)OCCCC [Comparative Example 1, tributyl aconitate, reference compound] | % | 223.2
CCOC(=O)C=C(CC(=O)OCC)C(=O)OCC [Example 21, triethyl aconitate] | % | 243.6
CCCCOC(=O)C=C(CC(=O)OCCCC)C(=O)OCCCC [Example 31, tributyl aconitate] | % | 231.5
CCCCOC(=O)C=C(CC(=O)OCCCC)C(=O)OCCCC [Example 24, tributyl aconitate] | % | 242.7

----------
EXPERIMENTAL PROTOCOL: Compatibility (water value method)
Assay type: physicochemical
RECORDED CONDITIONS: water value of the plasticizer, Table 9
Counter-ions that a name gives are not always drawn.
Below, each entry is listed with its recorded Compatibility.
MEASURE: Compatibility (mL)

MOLECULE | MEASURE | MEASURED
CCCCOC(=O)CC(O)(CC(=O)OCCCC)C(=O)OCCCC [Tributyl citrate, tributyl citrate] | Compatibility | 14.3
CCCCCCCCOC(=O)c1ccccc1C(=O)OCCCCCCCC [Dioctyl Phthalate, dioctyl phthalate] | Compatibility | 7.1
CC(C)CCCCCOC(=O)C=C(CC(=O)OCCCCCC(C)C)C(=O)OCCCCCC(C)C [Triisooctyl aconitate, triisooctyl aconitate] | Compatibility | 10.9
CCCCOC(=O)C=C(CC(=O)OCCCC)C(=O)OCCCC [Tributyl aconitate, tributyl aconitate] | Compatibility | 16.7

----------
Below, each entry is listed with its recorded Compatibility.
EXPERIMENTAL PROTOCOL: Compatibility (water value method)
Format: physicochemical
RECORDED CONDITIONS: 2.5 g plasticizer and 25 g acetone titrated with deionized water until turbidity; Table 5
Description: The aconitates and tributyl citrate prepared in the above examples and comparative examples were added as plasticizers to PVC resin to obtain PVC plastics. […] In the experiment, 2.5 g of plasticizer and 25 g of acetone were added to a beaker, titrated with a burette filled with deionized water, and agitated while titrating until turbidity appears, and the volume of deionized water consumed was recorded. • 4. […]
Where a name gives a salt, the structure may show the parent alone.

MOLECULE | Compatibility [mL]
CCOC(=O)C=C(CC(=O)OCC)C(=O)OCC [Example 21, triethyl aconitate] | 18.4
CCCCOC(=O)C=C(CC(=O)OCCCC)C(=O)OCCCC [Example 31, tributyl aconitate] | 12.5
CCCCC(CC)COC(=O)C=C(CC(=O)OCC(CC)CCCC)C(=O)OCC(CC)CCCC (centres unmarked) [Example 20, tri(2-ethylhexyl) aconitate] | 10.7
CCCCOC(=O)C=C(CC(=O)OCCCC)C(=O)OCCCC [Example 32, tributyl aconitate] | 13.1
CCCCOC(=O)C=C(CC(=O)OCCCC)C(=O)OCCCC [Example 30, tributyl aconitate] | 13.2
CCCCOC(=O)C=C(CC(=O)OCCCC)C(=O)OCCCC [Comparative Example 1, tributyl aconitate, reference compound] | 10.8
CCCCOC(=O)C=C(CC(=O)OCCCC)C(=O)OCCCC [Example 36, tributyl aconitate] | 13.4
CCCCOC(=O)C=C(CC(=O)OCCCC)C(=O)OCCCC [Example 24, tributyl aconitate] | 13.1
CCCCOC(=O)C=C(CC(=O)OCCCC)C(=O)OCCCC [Example 27, tributyl aconitate] | 12.4
CCCCOC(=O)CC(O)(CC(=O)OCCCC)C(=O)OCCCC [Comparative Example 5, tributyl citrate, reference compound] | 14.3
CCCCOC(=O)C=C(CC(=O)OCCCC)C(=O)OCCCC [Example 29, tributyl aconitate] | 14.9

----------
EXPERIMENTAL PROTOCOL: Plasticizer migration rate to NR (HG/T 4458-2012)
Type: physicochemical
RECORDED CONDITIONS: PVC composite with 30 parts plasticizer; 50°C for 48 h
Where a name gives a salt, the structure may show the parent alone.
Below, each entry is listed with its recorded Migration rate to NR.

COMPOUND | READOUT UNIT | Migration rate to NR
CC(C)CCCCCOC(=O)C=C(CC(=O)OCCCCCC(C)C)C(=O)OCCCCCC(C)C [Triisooctyl aconitate, triisooctyl aconitate] | % | 0.18
CCCCOC(=O)C=C(CC(=O)OCCCC)C(=O)OCCCC [Tributyl aconitate, tributyl aconitate] | % | 1.31
CCCCOC(=O)CC(O)(CC(=O)OCCCC)C(=O)OCCCC [Tributyl citrate, tributyl citrate] | % | 2.71
CCCCCCCCOC(=O)c1ccccc1C(=O)OCCCCCCCC [Dioctyl Phthalate, dioctyl phthalate] | % | 0.81

----------
EXPERIMENTAL PROTOCOL: Tensile properties (GB/T 1040-2006): tensile modulus at 100%, elongation at break, elastic modulus
Format: physicochemical
RECORDED CONDITIONS: PVC composite with 30 parts plasticizer, Table 9
Where a name gives a salt, the structure may show the parent alone.
Below, each entry is listed with its recorded Tensile modulus at 100%.
MEASURE: Tensile modulus at 100%

COMPOUND | MEASURE | MEASURED
CCCCOC(=O)CC(O)(CC(=O)OCCCC)C(=O)OCCCC [Tributyl citrate, tributyl citrate] | Tensile modulus at 100% | 13.6 MPa
CCCCCCCCOC(=O)c1ccccc1C(=O)OCCCCCCCC [Dioctyl Phthalate, dioctyl phthalate] | Tensile modulus at 100% | 15.1 MPa
CC(C)CCCCCOC(=O)C=C(CC(=O)OCCCCCC(C)C)C(=O)OCCCCCC(C)C [Triisooctyl aconitate, triisooctyl aconitate] | Tensile modulus at 100% | 16.1 MPa
CCCCOC(=O)C=C(CC(=O)OCCCC)C(=O)OCCCC [Tributyl aconitate, tributyl aconitate] | Tensile modulus at 100% | 8.2 MPa

----------
EXPERIMENTAL PROTOCOL: Residual amounts of fat-soluble and water-soluble pigments (HPLC)
Format: physicochemical
RECORDED CONDITIONS: aconitate/citrate products, Table 4
Below, each entry is listed with its recorded Residual amounts of water-soluble pigments.
MEASURE: Residual amounts of water-soluble pigments (ppm)

MOLECULE | MEASURED
CCCCOC(=O)C=C(CC(=O)OCCCC)C(=O)OCCCC [Example 29, tributyl aconitate] | 1302
CCCCOC(=O)C=C(CC(=O)OCCCC)C(=O)OCCCC [Example 27, tributyl aconitate] | 415
CCCCOC(=O)C=C(CC(=O)OCCCC)C(=O)OCCCC [Example 24, tributyl aconitate] | 420
CCCCOC(=O)C=C(CC(=O)OCCCC)C(=O)OCCCC [Example 25, tributyl aconitate] | 454

----------
Below, each entry is listed with its recorded Hardness/Shore D.
EXPERIMENTAL PROTOCOL: Hardness (Shore hardness tester, GB/T 531-2008)
Assay type: physicochemical
RECORDED CONDITIONS: PVC plastic: 100 parts PVC resin, 35 parts plasticizer, 2 parts oxidized polyethylene wax, 5 parts octyltin maleate
Counter-ions that a name gives are not always drawn.

COMPOUND | Hardness/Shore D, Shore D
CCCCOC(=O)C=C(CC(=O)OCCCC)C(=O)OCCCC [Example 35, tributyl aconitate] | 55
CCCCOC(=O)C=C(CC(=O)OCCCC)C(=O)OCCCC [Example 19, tributyl aconitate] | 41
CCOC(=O)C=C(CC(=O)OCC)C(=O)OCC [Example 21, triethyl aconitate] | 43
CCCCOC(=O)C=C(CC(=O)OCCCC)C(=O)OCCCC [Example 28, tributyl aconitate] | 42
CCCCOC(=O)C=C(CC(=O)OCCCC)C(=O)OCCCC [Comparative Example 3, tributyl aconitate, reference compound] | 45
CCCCOC(=O)C=C(CC(=O)OCCCC)C(=O)OCCCC [Comparative Example 2, tributyl aconitate, reference compound] | 45
CCCCOC(=O)CC(O)(CC(=O)OCCCC)C(=O)OCCCC [Comparative Example 5, tributyl citrate, reference compound] | 48
